meta.source: patent US9409887B2

System: HCC827 (delE746-A750 deletion mutation) cells
Assay: Cell proliferation (CellTiter Glo, 72 hr) in HCC827 cells
Assay type: cell-based, human
Details: Homo sapiens; HCC827 cells, 72 hr
Description: A431 human epidermoid carcinoma, H1975 human NSCLC and HCC827 human NSCLC adenocarcinoma cells were obtained from the American Type Culture Center (Manassas, Va.). […] Cells were plated in Growth Media supplemented with 5% FBS and 1% P/S at a density of 3,000 cells per well in 96 well tissue culture plates (Corning). […] Cell viability was determined by CellTiter Glo (Promega, Madison, Wis.) and results were converted to cell numbers using a standard curve. […]

# mol, target_or_system, GI50
records = [
    ("C=CC(=O)Nc1cccc(Nc2nc(Nc3ccc(NC4CN(CCF)C4)cc3OC)ncc2C(F)(F)F)c1", "HCC827 (delE746-A750 deletion mutation) cells", "10 to 100 nM"),
    ("C=CC(=O)Nc1cccc(Nc2nc(Nc3ccc(NC(C)C)cc3OC)ncc2C(F)(F)F)c1", "HCC827 (delE746-A750 deletion mutation) cells", "100 to 500 nM"),
    ("C=CC(=O)Nc1cccc(Oc2nc(Nc3ccc(NC(C)C)cc3OC)ncc2Cl)c1", "HCC827 (delE746-A750 deletion mutation) cells", "100 to 500 nM"),
    ("C=CC(=O)Nc1cccc(Nc2nc(Nc3ccc(NC4CN(C(=O)OC(C)(C)C)C4)cc3OC)ncc2C(F)(F)F)c1", "HCC827 (delE746-A750 deletion mutation) cells", "10 to 100 nM"),
    ("C=CC(=O)Nc1cccc(Nc2nc(Nc3ccc(NC4CN(C(C)=O)C4)cc3OC)ncc2C(F)(F)F)c1", "HCC827 (delE746-A750 deletion mutation) cells", "100 to 500 nM"),
]
